Read-out: Monocyte Chemoattractant Protein-1 (MCP1), CCL2 (gene 6347)
Experiment: BSK_SAg_MCP1: BioMAP Diversity Plus: SAg Assay for Monocyte Chemoattractant Protein-1 (MCP1) Biomarker Activity (AID 2283090)
Details: primary human HUVEC with PBMC; actives raise or lower the signal
Description: BSK_SAg is a cell-based, multiplexed-readout assay that uses umbilical vein endothelium and peripheral blood mononuclear cells, a human vascular primary cell co-culture, with measurements taken at 24 hours after chemical dosing in a 96-well plate.BSK_SAg_MCP1 is an assay component measured in the BSK_SAg assay. It measures MCP-1 antibody related to regulation of gene expression using ELISA technology.Data from the assay component BSK_SAg_MCP1 was analyzed into 1 assay endpoint. […]
Active and inactive are the calls of the source. How the source made its calls: active means hit-call score of the fitted dose curve at least 0.9, where 1 is the maximum; inactive means score below 0.9.
Parameter call: string, one of active, inactive

Fill in: this test's call for `CCC(C)(C)C(=O)O[C@H]1C[C@@H](C)C=C2C=C[C@H](C)[C@H](CC[C@@H]3C[C@@H](O)CC(=O)O3)[C@H]21` is ___
active

Hi, do you know how `Cc1ccc(C)c(O)c1` came out in this test?
inactive

So what was the verdict on `NC(=O)NO` in this test?
inactive

What did the test return for `Cc1c(-c2cccnc2)c2ccccc2n1CCCCC(=O)O` ?
inactive

How did this test come out for O=C1OC(=O)C2C3C=CC(C3)C12 (configuration not stated) ?
inactive

Dear colleague, could you share the recorded outcome for `Oc1ccc2c(c1)-c1ccccc1C2` when you have a moment?
inactive

# outcome recorded in this test, key = `CCOCCO`
inactive

Which outcome was entered for the molecule `COC(=O)CC(=O)OC` in this test?
inactive

Record lookup: outcome of this test for O=C1CCC(N2C(=O)c3ccccc3C2=O)C(=O)N1 (configuration not stated) ?
inactive

* * *

read-out: Monocyte Chemoattractant Protein-1 (MCP1), CCL2 (gene 6347); assay: BSK_SAg_MCP1: BioMAP Diversity Plus: SAg Assay for Monocyte Chemoattractant Protein-1 (MCP1) Biomarker Activity (AID 2283090); details: primary human HUVEC with PBMC; actives raise or lower the signal
Calls of active or inactive are those of the source. How the source made its calls: active means hit-call score of the fitted dose curve at least 0.9, where 1 is the maximum; inactive means score below 0.9.
Tick one outcome: true for active, false for inactive

query smiles | category
O=C(O)c1cccc(N(Cc2cccnc2)c2ccc(OC(F)F)c(OC(F)F)c2)c1 | true
Nc1nc2ncc(CNc3ccc(C(=O)N[C@@H](CCC(=O)O)C(=O)O)cc3)nc2c(=O)[nH]1 | false

// param item: `CCc1cc(SCc2sc(-c3ccc(C(F)(F)F)cc3)nc2CN2CCN(c3ccc(OC)cc3)CC2)ccc1OCC(=O)O` ; yields the recorded call
true
